- test-system: T1, GFP-9S library array, motif 4 ND N98T;D124C (synthetic construct, N98T;D124C)
- T1 chain: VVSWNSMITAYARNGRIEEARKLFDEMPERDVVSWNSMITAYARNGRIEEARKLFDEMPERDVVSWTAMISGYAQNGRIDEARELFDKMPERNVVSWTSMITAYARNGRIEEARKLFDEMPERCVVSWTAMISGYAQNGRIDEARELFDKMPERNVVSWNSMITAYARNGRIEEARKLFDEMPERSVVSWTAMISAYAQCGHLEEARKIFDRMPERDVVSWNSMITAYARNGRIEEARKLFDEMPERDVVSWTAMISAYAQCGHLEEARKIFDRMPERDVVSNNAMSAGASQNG
- test: high-throughput RNA pulldown from lysate on Ni-NTA beads; HRP: 50 mM Tris pH 8, 150 mM NaCl, 1 mM beta-mercaptoethanol, 50 ug/ml BSA, 3 ug/ml yeast RNA, 0.5% heparin; ITC and FP: Tris pH 8, 200 mM KCl, 5% glycerol; MST: 50 mM Tris pH 8, 200 mM NaCl, 1 mM DTT, BSA, heparin, 0.05% Tween 20
- condition-context: tags: N-terminal His-eGFP; label: 5' IRDye 800CW
Please provide measured pKd for the entries that follow.
In plain terms, pKd is the concentration in mol/L turned into minus its base-10 logarithm.

Which pKd value belongs to AUUAAACGUGA (ssRNA) [IR-rpoA-A] ?
7.05

Field request: pKd | item: AUUAUACGUGA (ssRNA) [IR-rpoA-U]
6.92
